# assay_target: PTP1B (Homo sapiens, UniProt P18031)
# Sequence (P18031 1-321): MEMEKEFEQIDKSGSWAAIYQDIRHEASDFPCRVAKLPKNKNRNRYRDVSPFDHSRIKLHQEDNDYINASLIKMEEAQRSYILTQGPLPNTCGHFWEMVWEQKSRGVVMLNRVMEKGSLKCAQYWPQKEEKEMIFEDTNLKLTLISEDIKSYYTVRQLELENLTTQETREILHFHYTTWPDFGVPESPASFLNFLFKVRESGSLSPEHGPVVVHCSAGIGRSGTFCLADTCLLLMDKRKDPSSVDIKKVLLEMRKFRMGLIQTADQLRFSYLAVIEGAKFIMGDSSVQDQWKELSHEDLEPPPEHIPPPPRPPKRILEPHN
# assay_name: PTP assay, wild-type PTP1B
# Assay type: biochemical
# measurement_context: WT PTP1B aa 1–321; pH 7.4
property_name: kcat/KM x 10^7

So for AApYAAADD , the logged kcat/KM x 10^7 turned out to be 0.97 x 10^7 M^−1 s^−1

So for EEDNAWpYAA , the logged kcat/KM x 10^7 turned out to be 2.1 x 10^7 M^−1 s^−1

So for AApYDDIDE , the logged kcat/KM x 10^7 turned out to be 1.1 x 10^7 M^−1 s^−1

So for Ac-AWGPLpYDEVQM-NH2 , the logged kcat/KM x 10^7 turned out to be 1.7 x 10^7 M^−1 s^−1

So for AApYAADDA , the logged kcat/KM x 10^7 turned out to be 1.1 x 10^7 M^−1 s^−1

So for AApYADDAA , the logged kcat/KM x 10^7 turned out to be 1.4 x 10^7 M^−1 s^−1

So for AApYDDAAA , the logged kcat/KM x 10^7 turned out to be 0.43 x 10^7 M^−1 s^−1

So for DPRGIpYDQVAG , the logged kcat/KM x 10^7 turned out to be 0.38 x 10^7 M^−1 s^−1

So for AApYIRKRA , the logged kcat/KM x 10^7 turned out to be 0.042 x 10^7 M^−1 s^−1

###

# assay_target: R47E PTP1B (Homo sapiens, UniProt P18031, R47E)
# Sequence (P18031 1-321 R47E): as the sequence (P18031 1-321) above, with R47E counted along it
# assay_name: PTP assay, R47E PTP1B
# Assay type: biochemical
# measurement_context: R47E PTP1B aa 1–321; pH 7.4
Kind request: treat 20 µM as inclusive, so Km at 20 µM or higher is Fulfilled, anything lower is Not fulfilled.

Enquiry: State whether the measured Km reaches 20 µM, counting equality as reaching it, for AApYADDAA
Return: Not fulfilled

Enquiry: State whether the measured Km reaches 20 µM, counting equality as reaching it, for AApYAADDA
Return: Not fulfilled

Enquiry: State whether the measured Km reaches 20 µM, counting equality as reaching it, for Ac-AWGPLpYDEVQM-NH2
Return: Not fulfilled

Enquiry: State whether the measured Km reaches 20 µM, counting equality as reaching it, for AApYDDIDE
Return: Fulfilled

Enquiry: State whether the measured Km reaches 20 µM, counting equality as reaching it, for AApYIRKRA
Return: Fulfilled

Enquiry: State whether the measured Km reaches 20 µM, counting equality as reaching it, for AApYDDAAA
Return: Fulfilled

Enquiry: State whether the measured Km reaches 20 µM, counting equality as reaching it, for DPRGIpYDQVAG
Return: Fulfilled

Enquiry: State whether the measured Km reaches 20 µM, counting equality as reaching it, for EEDNAWpYAA
Return: Not fulfilled

Enquiry: State whether the measured Km reaches 20 µM, counting equality as reaching it, for AApYAAADD
Return: Not fulfilled

###

Kindly supply the reported log10 Km values for the records listed here.
# assay_target: R24M PTP1B (Homo sapiens, UniProt P18031, R24M)
# Sequence (P18031 1-321 R24M): as the sequence (P18031 1-321) above, with R24M counted along it
# assay_name: PTP assay, R24M PTP1B
# Format: biochemical
# measurement_context: R24M PTP1B aa 1–321; pH 7.4
Note the log scale: values are log10 of Km expressed in µM.

Entry Ac-AWGPLpYDEVQM-NH2 , R24M PTP1B (Homo sapiens, UniProt P18031, R24M) data, log10 Km value: 0.70

Entry AApYAADDA , R24M PTP1B (Homo sapiens, UniProt P18031, R24M) data, log10 Km value: 0.84

Entry AApYADDAA , R24M PTP1B (Homo sapiens, UniProt P18031, R24M) data, log10 Km value: 0.81

Entry DPRGIpYDQVAG , R24M PTP1B (Homo sapiens, UniProt P18031, R24M) data, log10 Km value: 1.85

Entry AApYIRKRA , R24M PTP1B (Homo sapiens, UniProt P18031, R24M) data, log10 Km value: 1.72

Entry AApYDDIDE , R24M PTP1B (Homo sapiens, UniProt P18031, R24M) data, log10 Km value: 1.57

Entry EEDNAWpYAA , R24M PTP1B (Homo sapiens, UniProt P18031, R24M) data, log10 Km value: 0.28

Entry AApYAAADD , R24M PTP1B (Homo sapiens, UniProt P18031, R24M) data, log10 Km value: 0.94

Taken from paper PMC3954597.
